- tested.system: T1, RSV-F.mmh (Respiratory Syncytial Virus)
- T1 construct: also called recombinant RSV-F; soluble monomeric RSV-F
- method.description: SPR (Biacore), mAb captured via Fc, soluble RSV-F.mmh injected, 25 C
measure.name: t½ (min)
Report the value in min with no unit label.

H1M3622N (antibody, V domains shown) VH: QVQLQQWGAGLLKPSETLSLTCAVYGGSLSDYYWSWIRQPPGKGLEWIGEINHSGDTNYDPSLKSRLTISVDTSKNQFSLKLNSVTAADTAVYYCASLYFNFWMWGRGALVTVSS VL: DIVMTQTPLSSPVILGQPASISCRSSQSLVYSDGNTYLSWLQQRPGQPPRLLIYKISNRFSGVPDRFSGSGTGTDFTLKISRVEAEDVGIYYCMQTTQFPLTFGGGTKVEIK    127
H1M3624N (antibody, V domains shown, also called H1M2634N) VH: QVQLEQSGAEVKKPGTSVRISCKASGDIFTGYYMNWVRQAPGQGLEWMGWINTNSGGTYFSQRFQGRVTLTRDTSIRTAYMELSRLRSDDTAVYYCARMFYDILTGSDVFDIWGQGTMVTVSS VL: DIQMTQSPSSLSASVGDRVTITCRASQDIRNDLGWYHQKPGKAPKCLIYGASSLQSGVPSRFSGSGSGTEFTLTISSLQPEDFATYYCLQHKNYMYTFGQGTKLEIK    63
H1M3627N (antibody, V domains shown) VH: EVQLVESGGGLVQPGGSLRLSCAASGFTISNYEMNWVRQAPGKGLEWVSYISTSGITIYYADSVQGRFTISRDNAKNSLYLQLNSLRAEDTAVYYCARGYCTNGVCYPHYYYSDMDVWGQGTTVTVSS VL: DIQMTQSPSSLSASVGDRLTITCRASQTISTYLNWFQQKVGNAPKLLIYSTSSLQSGVPARFSGSGSGTDFTLTISSLQPEDFATYYCQQSYSSPPTFGQGTKVEIK    22

Task: Return t½ (reported value) for this binder: H1M3621N (antibody, V domains shown) VH: QVQLEQSGAEVKKPGASVRISCKASGDTFTGYYINWVRQAPGQGLEWMGWINTNSGGTYFSQKFQVRVILTRDTSINTAYMELSRLRSDDTAVYYCARMFYDILTNSDIFDIWGQGTMVTVSS VL: DIQMTQSPSSLSASVGDRVTITCRASQDIRNDLGWYQQKPGKAPKCLIYGASSLQSGVPSRFSGSGSGTEFTLTISSLQPEDFATYYCLQHKNYMYTFGQGTKLEIK
Output: 56
